# Population Normal (%) annotations
system: U2OS; experiment: Multiplex assay against U2OS; type: toxicity, cell-based; details: human, 12 h, 1 µM, compound concentration 1 uM, replicate 2
Field format: number, assumed %, no unit text.

Completed entries (count: 3):
- Compound: "C[C@H]1[C@H]2CC[C@H]3[C@@H]4CC=C5C[C@@H](N(C)C)CC[C@]5(C)[C@H]4CC[C@]23CN1C"
  Unit string: "%"
  Population Normal (%): 98
- Compound: "CC1(COc2ccc3c(c2)ncn3-c2ccc3cccc(N4CCC(N)CC4)c3n2)COC1"
  Unit string: "%"
  Population Normal (%): 86
- Compound: "CCCC(CCC)C(=O)O"
  Unit string: "%"
  Population Normal (%): 97

Ask | Quick one: Population Normal (%) for O=C(NCC(=O)N1CC[C@H](N[C@H]2CC[C@@](O)(c3ccc(-c4ncccn4)cn3)CC2)C1)c1cccc(C(F)(F)F)c1 ?
Reply | 95

Ask | Now the compound O=C1COc2nccc(-c3ccccc3F)c2CN1Cc1cc(C(F)(F)F)cc(C(F)(F)F)c1
Reply | 97

Ask | Next compound up: COc1cc(NC(=O)CCN2CCC(OC(=O)Nc3ccccc3-c3ccccc3)CC2)c(Cl)cc1CNC[C@H](O)c1ccc(O)c2[nH]c(=O)ccc12
Reply | 98

Ask | How about this compound: O=S(=O)(c1ccccc1)c1cnc2c(N3CCNCC3)cccc2c1 [INTEPIRDINE]
Reply | 100

Ask | Further, for Cc1nc2ccc(Oc3ccc(F)cc3)cc2c(=O)n1C[C@H]1CCCN(C(C)C)C1.Cl ?
Reply | 98

---

Below: a set of entries, each annotated with reported Population Normal (%).
tested on: HEK-293T; assay: Multiplex assay against HEK293T; assay type: toxicity, cell-based; settings: human, 12 h, 10 µM, compound concentration 10 uM, replicate 2
State the answer as a number, implicitly in %.

Examples with answers:
- Compound: "Cc1ccccc1C(=O)Nc1ccc(C(=O)N2CCCC(N(C)C)c3ccccc32)cc1.Cl (configuration not stated)"
  Unit string: "%"
  Population Normal (%): 84
- Compound: "O=C(NCC(=O)N1CC[C@H](N[C@H]2CC[C@@](O)(c3ccc(-c4ncccn4)cn3)CC2)C1)c1cccc(C(F)(F)F)c1"
  Unit string: "%"
  Population Normal (%): 93
- Compound: "CNC[C@H](O)c1ccc(O)c(O)c1 [EPINEPHRINE]"
  Unit string: "%"
  Population Normal (%): 59

Ask | For the compound shown here, O=S(=O)(c1ccccc1)c1cnc2c(N3CCNCC3)cccc2c1 [INTEPIRDINE] , give the reported Population Normal (%).
Reply | 92

Ask | Can you check CC1(COc2ccc3c(c2)ncn3-c2ccc3cccc(N4CCC(N)CC4)c3n2)COC1 next?
Reply | 30

Ask | Same for CC(=O)NCCc1c(Cc2ccccc2)[nH]c2ccccc12
Reply | 90

Ask | Okay, and CC(=O)O[C@H]1C(=O)[C@@]2(C)[C@H]([C@H](OC(=O)c3ccccc3)[C@]3(O)C[C@H](OC(=O)[C@H](O)[C@@H](NC(=O)c4ccccc4)c4ccccc4)C(C)=C1C3(C)C)[C@]1(OC(C)=O)CO[C@@H]1C[C@@H]2O ?
Reply | 85

---

tested on: HEK-293T; test: Multiplex assay against HEK293T; format: toxicity, cell-based; conditions: human, 48 h, 1 µM, compound concentration 1 uM, replicate 1
As shown below, each of these compounds has a reported Population Pyknosed Nuclei (%) value.
Please state the figure in %; there is no need to write the unit.

Some solved cases for reference:
- Compound: "N#Cc1c(N)nc(SCc2csc(-c3ccc(Cl)cc3)n2)c(C#N)c1-c1ccc(OCCO)cc1 [CAPADENOSON]"
  Population Pyknosed Nuclei (%): 10
- Compound: "CN(C)CCCc1cc(C(=O)Nc2ccc(-c3ccncc3)cc2)ccc1O.Cl.Cl"
  Population Pyknosed Nuclei (%): 6
- Compound: "CC[C@H]1OC(=O)[C@H](C)[C@@H](O[C@H]2C[C@@](C)(OC)[C@@H](O)[C@H](C)O2)[C@H](C)[C@@H](O[C@@H]2O[C@H](C)C[C@H](N(C)C)[C@H]2O)[C@@]2(C)CC(C)=C(O2)[C@H](C)[C@@H](O)[C@]1(C)O"
  Population Pyknosed Nuclei (%): 11
- Compound: "Oc1c(CN2CCN(c3ccccn3)CC2)cc(Cl)c2cccnc12"
  Population Pyknosed Nuclei (%): 6
- Compound: "CN1CCN2c3ncccc3Cc3ccccc3C2C1 (configuration not stated) [MIRTAZAPINE]"
  Population Pyknosed Nuclei (%): 6
- Compound: "COc1c(C)cc(NC(=O)c2nn(Cc3ccc(F)cc3)c3c2CN(C(=O)c2ccc[nH]2)C[C@]3(C)C(N)=O)cc1C"
  Population Pyknosed Nuclei (%): 6

Okay, next one:
Ask | I have this compound here, C[C@@H]1C[C@H]2[C@@H]3CCC4=CC(=O)C=C[C@]4(C)[C@@]3(F)[C@@H](O)C[C@]2(C)[C@@]1(O)C(=O)CO [DEXAMETHASONE] , and I need its recorded Population Pyknosed Nuclei (%).
Reply | 7
